Species: Rattus norvegicus
Experiment: Open TG-GATES - Regimen: Single
Format: toxicity, organism-based, Sprague-Dawley
Set-up: regimen Single, gender Male, age 6 weeks
Details: in vivo, po, 10 mg/kg, 6 h, tissue Liver, route gavage, dose level Low
MEASURE_NAME: LIVER (g)

[
  {
    "COMPOUND": "CN(C)CCCN1c2ccccc2CCc2ccc(Cl)cc21",
    "RECORDED_VALUE": 9.3
  },
  {
    "COMPOUND": "CN(C)CCN(Cc1cccs1)c1ccccn1",
    "RECORDED_VALUE": 8.2
  },
  {
    "COMPOUND": "CC1=C(/C=C/C(C)=C/C=C/C(C)=C/CO)C(C)(C)CCC1",
    "RECORDED_VALUE": 8.6
  },
  {
    "COMPOUND": "CC(C)OC(=O)C(C)(C)Oc1ccc(C(=O)c2ccc(Cl)cc2)cc1 [FENOFIBRATE]",
    "RECORDED_VALUE": 7.8
  }
]

---

Species: Rattus norvegicus
Assay: Open TG-GATES - Regimen: Daily Repeat
Assay type: toxicity, organism-based, Sprague-Dawley
Set-up: regimen Daily Repeat, gender Male, age 6 weeks
Conditions: in vivo, po, 100 mg/kg, 72 h, tissue Plasma, route gavage, dose level Low, time 3 day
Collected A/G values appear next to each entry.

[
  {
    "COMPOUND": "NC(N)=Nc1nc(CSCCC(N)=NS(N)(=O)=O)cs1",
    "A/G": 1.6
  },
  {
    "COMPOUND": "COC1=CC(=O)C[C@@H](C)[C@]12Oc1c(Cl)c(OC)cc(OC)c1C2=O",
    "A/G": 1.6
  },
  {
    "COMPOUND": "CCOC(=O)CCC(=O)O[C@H]1[C@H](O[C@@H]2[C@@H](C)[C@H](O[C@H]3C[C@@](C)(OC)[C@@H](O)[C@H](C)O3)[C@@H](C)C(=O)O[C@H](CC)[C@@](C)(O)[C@H](O)[C@@H](C)C(=O)[C@H](C)C[C@@]2(C)O)O[C@H](C)C[C@@H]1N(C)C [ERYTHROMYCIN ETHYLSUCCINATE]",
    "A/G": 1.2
  },
  {
    "COMPOUND": "CCOc1ccc(NC(=O)CC(C)O)cc1 (centres undefined)",
    "A/G": 0.9
  }
]

---

Species on record: Rattus norvegicus
Test: Open TG-GATES - Regimen: Single
Format: toxicity, organism-based, Sprague-Dawley
Set-up: regimen Single, gender Male, age 6 weeks
Details: in vivo, po, 100 mg/kg, 24 h, tissue Blood, route gavage, dose level High
Ht values by entry
MEASURE_NAME: Ht (%)

[
  {
    "COMPOUND": "CN(C)CCCN1c2ccccc2CCc2ccccc21 [IMIPRAMINE]",
    "MEASURE_NAME": "Ht",
    "QUANTITY_UNIT": "%",
    "RECORDED_VALUE": 42.6
  },
  {
    "COMPOUND": "CN(C)CCN(Cc1cccs1)c1ccccn1",
    "MEASURE_NAME": "Ht",
    "QUANTITY_UNIT": "%",
    "RECORDED_VALUE": 39.4
  },
  {
    "COMPOUND": "CN(C)CCCN1c2ccccc2CCc2ccc(Cl)cc21 [CLOMIPRAMINE]",
    "MEASURE_NAME": "Ht",
    "QUANTITY_UNIT": "%",
    "RECORDED_VALUE": 43.4
  },
  {
    "COMPOUND": "CC1=C(/C=C/C(C)=C/C=C/C(C)=C/CO)C(C)(C)CCC1 [RETINOL]",
    "MEASURE_NAME": "Ht",
    "QUANTITY_UNIT": "%",
    "RECORDED_VALUE": 38.7
  }
]

---

Organism: Rattus norvegicus
Experiment: Open TG-GATES - Regimen: Daily Repeat
Type: toxicity, organism-based, Sprague-Dawley
Parameters: regimen Daily Repeat, gender Male, age 6 weeks
Conditions: in vivo, po, 1000 mg/kg, […], tissue Plasma, route gavage, dose level High, time 28 day
# CRE annotations
MEASURE_NAME: CRE (mg/dL)

[
  {
    "MOLECULE": "NC(N)=Nc1nc(CSCCC(N)=NS(N)(=O)=O)cs1",
    "MEASURE_NAME": "CRE",
    "RECORDED_VALUE": 0.6
  },
  {
    "MOLECULE": "CCOC(=O)CCC(=O)O[C@H]1[C@H](O[C@@H]2[C@@H](C)[C@H](O[C@H]3C[C@@](C)(OC)[C@@H](O)[C@H](C)O3)[C@@H](C)C(=O)O[C@H](CC)[C@@](C)(O)[C@H](O)[C@@H](C)C(=O)[C@H](C)C[C@@]2(C)O)O[C@H](C)C[C@@H]1N(C)C [ERYTHROMYCIN ETHYLSUCCINATE]",
    "MEASURE_NAME": "CRE",
    "RECORDED_VALUE": 0.2
  },
  {
    "MOLECULE": "COc1ccc2[nH]c([S+]([O-])Cc3ncc(C)c(OC)c3C)nc2c1 (stereo unspecified)",
    "MEASURE_NAME": "CRE",
    "RECORDED_VALUE": 0.5
  },
  {
    "MOLECULE": "COC1=CC(=O)C[C@@H](C)[C@]12Oc1c(Cl)c(OC)cc(OC)c1C2=O",
    "MEASURE_NAME": "CRE",
    "RECORDED_VALUE": 0.5
  },
  {
    "MOLECULE": "CCOc1ccc(NC(=O)CC(C)O)cc1 (stereo unspecified)",
    "MEASURE_NAME": "CRE",
    "RECORDED_VALUE": 0.3
  },
  {
    "MOLECULE": "CC(C)OC(=O)C(C)(C)Oc1ccc(C(=O)c2ccc(Cl)cc2)cc1 [FENOFIBRATE]",
    "MEASURE_NAME": "CRE",
    "RECORDED_VALUE": 0.2
  }
]

---

Species: Rattus norvegicus
Test: Open TG-GATES - Regimen: Daily Repeat
Assay type: toxicity, organism-based, Sprague-Dawley
Set-up: regimen Daily Repeat, gender Male, age 6 weeks
Details: in vivo, po, 300 mg/kg, 72 h, tissue Blood, route gavage, dose level Middle, time 3 day
Below, each entry is listed with its recorded Plat.
MEASURE_NAME: Plat (x10_4/uL)

[
  {
    "COMPOUND": "NC(N)=Nc1nc(CSCCC(N)=NS(N)(=O)=O)cs1 [FAMOTIDINE]",
    "QUANTITY_UNIT": "x10_4/uL",
    "RECORDED_VALUE": 127.7
  },
  {
    "COMPOUND": "CCOC(=O)CCC(=O)O[C@H]1[C@H](O[C@@H]2[C@@H](C)[C@H](O[C@H]3C[C@@](C)(OC)[C@@H](O)[C@H](C)O3)[C@@H](C)C(=O)O[C@H](CC)[C@@](C)(O)[C@H](O)[C@@H](C)C(=O)[C@H](C)C[C@@]2(C)O)O[C@H](C)C[C@@H]1N(C)C [ERYTHROMYCIN ETHYLSUCCINATE]",
    "QUANTITY_UNIT": "x10_4/uL",
    "RECORDED_VALUE": 114.1
  },
  {
    "COMPOUND": "COc1ccc2[nH]c([S+]([O-])Cc3ncc(C)c(OC)c3C)nc2c1 (stereo not given) [OMEPRAZOLE]",
    "QUANTITY_UNIT": "x10_4/uL",
    "RECORDED_VALUE": 135
  },
  {
    "COMPOUND": "CCOc1ccc(NC(=O)CC(C)O)cc1 (stereo not given) [BUCETIN]",
    "QUANTITY_UNIT": "x10_4/uL",
    "RECORDED_VALUE": 123.5
  },
  {
    "COMPOUND": "COC1=CC(=O)C[C@@H](C)[C@]12Oc1c(Cl)c(OC)cc(OC)c1C2=O [GRISEOFULVIN]",
    "QUANTITY_UNIT": "x10_4/uL",
    "RECORDED_VALUE": 118.4
  }
]

---

Species on record: Rattus norvegicus
Test: Open TG-GATES - Regimen: Single
Type: toxicity, organism-based, Sprague-Dawley
Design: regimen Single, gender Male, age 6 weeks
Conditions: in vivo, po, 100 mg/kg, 24 h, tissue Blood, route gavage, dose level Low
Examples of compounds with documented Ht follow.
MEASURE_NAME: Ht

[
  {
    "COMPOUND": "NC(N)=Nc1nc(CSCCC(N)=NS(N)(=O)=O)cs1",
    "RECORDED_VALUE": "37.2%"
  },
  {
    "COMPOUND": "COC1=CC(=O)C[C@@H](C)[C@]12Oc1c(Cl)c(OC)cc(OC)c1C2=O",
    "RECORDED_VALUE": "40.6%"
  },
  {
    "COMPOUND": "CCOC(=O)CCC(=O)O[C@H]1[C@H](O[C@@H]2[C@@H](C)[C@H](O[C@H]3C[C@@](C)(OC)[C@@H](O)[C@H](C)O3)[C@@H](C)C(=O)O[C@H](CC)[C@@](C)(O)[C@H](O)[C@@H](C)C(=O)[C@H](C)C[C@@]2(C)O)O[C@H](C)C[C@@H]1N(C)C [ERYTHROMYCIN ETHYLSUCCINATE]",
    "RECORDED_VALUE": "41.6%"
  },
  {
    "COMPOUND": "COc1ccc2[nH]c([S+]([O-])Cc3ncc(C)c(OC)c3C)nc2c1 (centres undefined)",
    "RECORDED_VALUE": "37.6%"
  }
]
